tested on: HCT-116 human colorectal carcinoma cells; assay: Alamar Blue cell proliferation assay, HCT-116; format: cell-based; conditions: 96 h, anti-proliferative effect, about four days with compound, HCT-116 cells, read-out: AB: HCT-116
pIC50: −log10 of the molar value.
observed_property: pIC50

Worked cases, answers included:
{"columns": ["molecule", "recorded_result"],
 "data": [
  ["O=C(NN1CCCC1)c1c(=O)c2ccc(N3CCOCC3)nc2n2c1sc1ccccc12", 6.19],
  ["CN(C)NC(=O)c1c(=O)c2ccc(N3CCOCC3)nc2n2c1[nH]c1ccccc12", 5.78],
  ["O=C(NNc1ccccn1)c1c(=O)c2cc(F)c(N3CCOCC3)nc2n2c1sc1ccccc12", 5.88]
]}

A: CN1CCN(NC(=O)c2c(=O)c3cc(F)c(NN4CCN(C)CC4)nc3n3c2sc2ccccc23)CC1
B: O=C(NNC1=NCCN1)c1c(=O)c2cc(F)c(N3CCOCC3)nc2n2c1sc1ccccc12
From the items above, decide which of A and B has the lower pIC50 reading. Kindly give the label for the entry you pick.
A
(A: 5.76, B: 9.00)

###

Tested on: C-myc transcription (cMYC RNA synthesis)
Assay: QPCR control assay of C-myc transcription
Type: cell-based
Settings: IC50 pertaining to cMYC RNA synthesis
Protocol: A control assay that detected effects of the compounds on C-myc transcription also was conducted using a primer/probe set purchased from ABI (TaqMan Gene Expression Assay with assay ID: Hs99999003_m1). The following assay protocol was utilized: Step 1. Reverse transcription of RNA to DNA Fluorescence of digested label was detected and quantified. […]
pIC50: −log10 of the molar value.
observed_property: pIC50

A: CN1CCN(NC(=O)c2c(=O)c3ccc(N4CCOCC4)nc3n3c2sc2ccccc23)CC1 [Cmpd 1]
B: CN1CCN(NC(=O)c2c(=O)c3cc(F)c(N4CCOCC4)nc3n3c2sc2ccccc23)CC1 [Cmpd 3]
From the items above, decide which of A and B has the lower pIC50 reading. Kindly give the label for the entry you pick.
B

###

tested on: HCT-116 human colorectal carcinoma cells; assay: Alamar Blue cell proliferation assay, HCT-116; assay type: cell-based; settings: 96 h, anti-proliferative effect, about four days with compound, HCT-116 cells, read-out: AB: HCT-116
observed_property: IC50 (nM)

A: CN1CCN(NC(=O)c2c(=O)c3ccc(NCCF)nc3n3c2sc2ccccc23)CC1 [Cmpd 12]
B: O=C(Nn1cnnc1)c1c(=O)c2cc(F)c(N3CCOCC3)nc2n2c1sc1ccccc12 [Cmpd 16]
From the items above, decide which of A and B has the lower IC50 reading. Kindly give the label for the entry you pick.
B
(B: 292 nM, A: 693 nM)

A: CN1CCN(NC(=O)c2c(=O)c3cc(F)c(N(C)Cc4cnccn4)nc3n3c2sc2ccccc23)CC1 [Cmpd 4]
B: CN1CCN(NC(=O)c2c(=O)c3ccc(N(C)Cc4cnccn4)nc3n3c2sc2ccccc23)CC1 [Cmpd 2]
From the items above, decide which of A and B has the lower IC50 reading. Kindly give the label for the entry you pick.
B
(B: 249 nM, A: 517 nM)

###

system: C-myc transcription (cMYC RNA synthesis); experiment: QPCR control assay of C-myc transcription; assay type: cell-based; conditions: IC50 pertaining to cMYC RNA synthesis
observed_property: IC50 (µM)

{"columns": ["molecule", "unit_annotation", "IC50"],
 "data": [
  ["O=C(NN1CCCCC1)c1c(=O)c2ccc(N3CCOCC3)nc2n2c1sc1ccccc12", "µM", 23.6],
  ["CN(C)NC(=O)c1c(=O)c2ccc(N3CCOCC3)nc2n2c1sc1ccccc12", "µM", 8.99],
  ["CN1CCN(NC(=O)c2c(=O)c3cc(F)c(N(C)Cc4cnccn4)nc3n3c2sc2ccccc23)CC1", "µM", 7.01]
]}

I: O=C(Nn1cnnc1)c1c(=O)c2cc(F)c(N3CCOCC3)nc2n2c1sc1ccccc12
II: O=C(NNC1=NCCN1)c1c(=O)c2cc(F)c(N3CCOCC3)nc2n2c1sc1ccccc12
Between these two entries, I and II , state which has the higher IC50. Kindly give the label for the entry you pick.
I
(I: 14 µM, II: 1.1 µM)

###

tested on: HCT-116 human colorectal carcinoma cells; experiment: Alamar Blue cell proliferation assay, HCT-116; type: cell-based; conditions: 96 h, anti-proliferative effect, about four days with compound, HCT-116 cells, read-out: AB: HCT-116
observed_property: IC50 (nM)

Worked cases, answers included:
{"columns": ["compound", "unit_annotation", "recorded_result"],
 "data": [
  ["CN1CCN(NC(=O)c2c(=O)c3ccc(N4CCC(O)C4)nc3n3c2sc2ccccc23)CC1 (stereo not shown)", "nM", 5880],
  ["O=C(NN1CCOCC1)c1c(=O)c2ccc(N3CCOCC3)nc2n2c1sc1ccccc12", "nM", 562],
  ["CN1CCN(NC(=O)c2c(=O)c3cc(F)c(N4CCOCC4)nc3n3c2sc2ccccc23)CC1", "nM", 265]
]}

A: Cn1c2ccccc2n2c3nc(N4CCOCC4)c(F)cc3c(=O)c(C(=O)NN3CCOCC3)c12
B: CN1CCN(NC(=O)c2c(=O)c3ccc(-c4ccc(CO)cc4)nc3n3c2sc2ccccc23)CC1
From the items above, decide which of A and B has the lower IC50 reading. Kindly give the label for the entry you pick.
A
(A: 662 nM, B: 7140 nM)

1: COc1ccc(CNc2ccc3c(=O)c(C(=O)NN4CCN(C)CC4)c4sc5ccccc5n4c3n2)cc1
2: CN(C)NC(=O)c1c(=O)c2cc(F)c(N3CCOCC3)nc2n2c3ccccc3n(C)c12
3: CN(C)NC(=O)c1c(=O)c2ccc(N3CCOCC3)nc2n2c1sc1ccccc12
4: CN1CCN(NC(=O)c2c(=O)c3ccc(N4CCOCC4)nc3n3c2sc2ccccc23)CC1
Rank ascending by IC50. State the ranking by listing the labels in the requested order.
4, 3, 1, 2

###

tested on: HCT-116 human colorectal carcinoma cells; experiment: Alamar Blue cell proliferation assay, HCT-116; type: cell-based; conditions: 96 h, anti-proliferative effect, about four days with compound, HCT-116 cells, read-out: AB: HCT-116
pIC50: −log10 of the molar value.
observed_property: pIC50

{"columns": ["molecule", "pIC50"],
 "data": [
  ["O=C(NN1CCOCC1)c1c(=O)c2cc(F)c(N3CCOCC3)nc2n2c1sc1ccccc12", 6.16],
  ["COC[C@H]1CCCN1NC(=O)c1c(=O)c2ccc(N3CCOCC3)nc2n2c1sc1ccccc12", 5.93],
  ["CN1CCN(NC(=O)c2c(=O)c3ccc(N4CCCCC4)nc3n3c2sc2ccccc23)CC1", 6.04]
]}
